Recorded values, source patent US10647679B2.

Collected Emax values appear next to each entry.
# experimental-target: recombinant rat GluN1/GluN2C (Rattus norvegicus, UniProt P35439+Q00961)
# Construct: expressed in transfected cells; host or cells: Xenopus laevis oocytes (Ecocyte) injected with in vitro transcribed cRNA
# Sequence (Q00961 20-1237, other chains not shown): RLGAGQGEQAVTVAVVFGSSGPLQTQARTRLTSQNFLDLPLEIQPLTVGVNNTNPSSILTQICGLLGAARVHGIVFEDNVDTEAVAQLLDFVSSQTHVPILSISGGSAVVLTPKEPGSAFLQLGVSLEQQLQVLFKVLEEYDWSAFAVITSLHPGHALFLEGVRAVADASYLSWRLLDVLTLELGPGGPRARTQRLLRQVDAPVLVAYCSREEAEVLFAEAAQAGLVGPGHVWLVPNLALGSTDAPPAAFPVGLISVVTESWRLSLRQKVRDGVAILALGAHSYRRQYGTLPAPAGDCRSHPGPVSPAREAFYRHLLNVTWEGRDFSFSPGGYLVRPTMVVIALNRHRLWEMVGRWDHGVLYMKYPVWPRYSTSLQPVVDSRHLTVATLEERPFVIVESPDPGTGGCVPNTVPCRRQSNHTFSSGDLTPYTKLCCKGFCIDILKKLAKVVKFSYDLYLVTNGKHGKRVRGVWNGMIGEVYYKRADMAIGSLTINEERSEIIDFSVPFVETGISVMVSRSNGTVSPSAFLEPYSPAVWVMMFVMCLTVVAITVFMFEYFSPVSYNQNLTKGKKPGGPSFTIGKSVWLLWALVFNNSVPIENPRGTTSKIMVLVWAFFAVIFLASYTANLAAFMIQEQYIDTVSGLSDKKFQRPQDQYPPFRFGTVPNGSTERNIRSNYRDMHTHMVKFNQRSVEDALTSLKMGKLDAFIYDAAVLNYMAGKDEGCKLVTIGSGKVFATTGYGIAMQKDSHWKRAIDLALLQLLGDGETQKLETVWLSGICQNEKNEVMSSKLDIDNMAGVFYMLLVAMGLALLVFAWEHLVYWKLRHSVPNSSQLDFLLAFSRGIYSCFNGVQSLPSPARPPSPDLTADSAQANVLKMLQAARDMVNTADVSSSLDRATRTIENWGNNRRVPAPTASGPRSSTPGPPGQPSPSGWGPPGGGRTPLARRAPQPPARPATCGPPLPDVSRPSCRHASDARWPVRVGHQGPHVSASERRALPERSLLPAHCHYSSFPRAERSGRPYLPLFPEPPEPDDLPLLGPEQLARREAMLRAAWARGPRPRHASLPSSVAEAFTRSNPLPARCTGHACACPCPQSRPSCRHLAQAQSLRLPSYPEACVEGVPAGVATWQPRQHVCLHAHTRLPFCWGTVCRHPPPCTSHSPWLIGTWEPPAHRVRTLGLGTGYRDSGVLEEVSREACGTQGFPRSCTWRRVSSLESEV
# experimental-protocol: Two-electrode voltage-clamp (TEVC) recordings in Xenopus laevis oocytes, GluN1/GluN2C
# Format: cell-based
# condition-info: Tables 11-13; read-out: EC50 & Max Effect: 2C Max (%)

# count of solved cases: 4
# compound, assay-result
records = [
    ("COc1ccc(OCC2c3cc(OC)c(OC)cc3CCN2C(=O)c2cccc(Br)c2)cc1 (stereo not drawn)", "145%"),
    ("COc1ccc(OCC2c3cc(C)c(C)cc3CCN2C(=O)c2cccc(Br)c2)cc1 (stereo not drawn) [drawing 33 R1=Br R2=H R3=H R4=Me R5=Me]", "197%"),
    ("COc1ccc(OCC2c3cc(OC)c(OC)cc3CCN2C(=O)c2ccccc2)cc1 (stereo not drawn) [drawing 33 R1=H R2=H R3=H R4=OMe R5=OMe]", "450%"),
    ("COc1ccc(OCC2c3ccc(SCc4ccccc4)cc3CCN2C(=O)c2cccc(Cl)c2)cc1 (stereo not drawn) [drawing 33 R1=Cl R2=H R3=H R4=SBn R5=H]", "226%"),
]

Form field: reported Emax of COc1ccc(OCC2c3ccc(N(C)C)cc3CCN2C(=O)c2cccc(Br)c2)cc1 (stereo not drawn) [drawing 33 R1=Br R2=H R3=H R4=NMe2 R5=H] 293%

Form field: reported Emax of CCOc1ccc(OCC2c3ccc(OC4CCCC4)cc3CCN2C(=O)c2cccc(F)c2)cc1 (stereo not drawn) 170%

----------
# experimental-target: recombinant rat GluN1/GluN2C (Rattus norvegicus, UniProt Q00961)
# Construct: expressed in transfected cells; host or cells: Xenopus laevis oocytes (Ecocyte) injected with in vitro transcribed cRNA
# experimental-protocol: Two-electrode voltage-clamp (TEVC) recordings in Xenopus laevis oocytes, GluN1/GluN2C
# Type: cell-based
# condition-info: 10 μM compound; Table 3
property-measured: I10 μM/Icontrol (mean ± SEM, %) GluN2C
// return numeric value only (unit: %, not printed)

# count of solved cases: 5
# compound, unit-symbol, I10 μM/Icontrol (mean ± SEM, %) GluN2C
data = [
    ("COc1ccc(OCC2c3ccc(OC(C)C)cc3CCN2C(=S)c2cccc(Cl)c2)cc1 (racemic)", "%", 272),
    ("COc1ccc(OC[C@@H]2c3ccc(OC(C)C)cc3CCN2C(=S)c2cccc(Cl)c2)cc1 [(S)-(−)-1180-163]", "%", 302),
    ("COc1ccc(OC[C@@H]2c3ccc(OC(C)C)cc3CCN2C(=O)c2cccc(Cl)c2)cc1 [(S)-(−)-1180-55]", "%", 361),
    ("COc1ccc(OC[C@H]2c3ccc(OC(C)C)cc3CCN2C(=O)c2cccc(Cl)c2)cc1 [(R)-(+)-1180-55]", "%", 323),
    ("COc1ccc(OCC2c3ccc(OC(C)C)cc3CCN2C(=O)c2cccc(Cl)c2)cc1 (stereo not drawn)", "%", 231),
]

Now consider a different compound.
Form field: reported I10 μM/Icontrol (mean ± SEM, %) GluN2C of COc1ccc(OC[C@H]2c3ccc(OC(C)C)cc3CCN2C(=S)c2cccc(Cl)c2)cc1 [(R)-(+)-1180-163] 252

----------
# experimental-target: recombinant rat GluN1/GluN2C (Rattus norvegicus, UniProt P35439+Q00961)
# Construct: expressed in transfected cells; host or cells: Xenopus laevis oocytes (Ecocyte) injected with in vitro transcribed cRNA
# experimental-protocol: Two-electrode voltage-clamp (TEVC) recordings in Xenopus laevis oocytes, GluN1/GluN2C
# Format: cell-based
# condition-info: maximum potentiation, response without modulator = 100%; read-out: GluN2C EC50 (μM)/Max %: Max %
Collected Emax values appear next to each entry.
// return numeric value only (unit: %, not printed)

# count of solved cases: 2
# compound, Emax [%]
records = [
    ("CCOc1ccc(OCC2c3ccc(OC(C)C)cc3CCN2C(=O)c2cccc(Br)c2)cc1 (centres unmarked)", 132),
    ("COc1ccc(OCC2c3ccc(OC(C)C)cc3CCN2C(=O)c2cccc(F)c2)cc1 (centres unmarked)", 304),
]

Now consider a different compound.
Form field: reported Emax of CCOc1ccc(OCC2c3ccc(OC(C)C)cc3CCN2C(=O)c2cccc(Cl)c2)cc1 (centres unmarked) 125

----------
Collected EC50 values appear next to each entry.
# experimental-target: recombinant rat GluN1/GluN2D (Rattus norvegicus)
# Construct: expressed in transfected cells; host or cells: Xenopus laevis oocytes (Ecocyte) injected with in vitro transcribed cRNA
# experimental-protocol: Two-electrode voltage-clamp (TEVC) recordings in Xenopus laevis oocytes, GluN1/GluN2D
# Assay type: cell-based
# condition-info: untitled tables after drawing 25 and drawing 36; read-out: EC50 (μM) GluN2D

# molecule, assay-result
data = [
    ("COc1ccc(OCC2c3ccc(OC)cc3CCN2C(=O)C=C(C)C(F)(F)F)cc1 (centres unmarked) [1180-255]", "23 µM"),
]

Now consider a different molecule.
Form field: reported EC50 of COc1ccc(OCC2c3ccc(OC)cc3CCN2C(=O)C=CC(F)(F)F)cc1 (centres unmarked) [1180-253] 9 µM

----------
# experimental-target: recombinant rat GluN1/GluN2D (Rattus norvegicus, UniProt P35439+Q62645)
# Construct: expressed in transfected cells; host or cells: Xenopus laevis oocytes (Ecocyte) injected with in vitro transcribed cRNA
# Sequence (Q62645 28-1323, other chains not shown): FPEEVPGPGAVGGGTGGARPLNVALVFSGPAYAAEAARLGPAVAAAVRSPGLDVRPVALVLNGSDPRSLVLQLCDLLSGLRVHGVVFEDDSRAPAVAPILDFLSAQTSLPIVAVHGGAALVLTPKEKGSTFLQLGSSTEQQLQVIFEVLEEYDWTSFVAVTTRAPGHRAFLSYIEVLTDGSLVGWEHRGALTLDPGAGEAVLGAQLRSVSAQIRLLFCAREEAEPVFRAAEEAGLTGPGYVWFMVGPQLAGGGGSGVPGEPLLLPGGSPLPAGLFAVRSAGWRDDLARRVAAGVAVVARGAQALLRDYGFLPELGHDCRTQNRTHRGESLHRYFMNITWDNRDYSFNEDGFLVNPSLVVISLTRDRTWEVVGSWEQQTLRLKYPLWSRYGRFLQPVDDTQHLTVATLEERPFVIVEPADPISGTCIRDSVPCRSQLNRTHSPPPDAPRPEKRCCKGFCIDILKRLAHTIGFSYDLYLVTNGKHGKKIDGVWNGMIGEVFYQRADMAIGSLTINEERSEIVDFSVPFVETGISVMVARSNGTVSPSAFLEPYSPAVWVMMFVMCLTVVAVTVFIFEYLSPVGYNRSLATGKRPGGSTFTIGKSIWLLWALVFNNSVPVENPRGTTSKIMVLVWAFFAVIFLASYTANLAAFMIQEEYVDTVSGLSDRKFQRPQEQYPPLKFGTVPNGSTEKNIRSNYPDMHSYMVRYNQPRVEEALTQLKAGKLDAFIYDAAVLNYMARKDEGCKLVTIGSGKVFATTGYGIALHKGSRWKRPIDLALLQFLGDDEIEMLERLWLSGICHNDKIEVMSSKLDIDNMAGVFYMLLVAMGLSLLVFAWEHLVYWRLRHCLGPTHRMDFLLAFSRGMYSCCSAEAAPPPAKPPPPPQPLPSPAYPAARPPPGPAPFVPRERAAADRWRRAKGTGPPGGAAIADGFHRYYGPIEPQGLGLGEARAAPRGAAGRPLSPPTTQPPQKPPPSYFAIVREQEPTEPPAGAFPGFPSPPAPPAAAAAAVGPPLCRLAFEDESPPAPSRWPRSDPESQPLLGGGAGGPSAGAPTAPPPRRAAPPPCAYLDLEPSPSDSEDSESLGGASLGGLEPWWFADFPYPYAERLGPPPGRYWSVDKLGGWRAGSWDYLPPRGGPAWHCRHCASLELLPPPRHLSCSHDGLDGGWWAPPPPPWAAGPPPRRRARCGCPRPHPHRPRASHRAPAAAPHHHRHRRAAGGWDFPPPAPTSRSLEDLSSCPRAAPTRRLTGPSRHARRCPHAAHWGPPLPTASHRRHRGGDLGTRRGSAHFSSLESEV
# experimental-protocol: Two-electrode voltage-clamp (TEVC) recordings in Xenopus laevis oocytes, GluN1/GluN2D
# Type: cell-based
# condition-info: fitted when potentiation at 30 μM exceeded 120%; Tables 3, 5-7; read-out: EC50 (max.) (μM %) GluN2D: fitted EC50
property-measured: EC50 (µM)
// return numeric value only (unit: µM, not printed)

Form field: reported EC50 of COc1ccc(OCC2c3ccc(OC(C)C)cc3CCN2C(=O)c2cccc(Cl)c2)cc1 (stereo not shown) [1180-55] 4.3

----------
# experimental-target: recombinant rat GluN1/GluN2D (Rattus norvegicus, UniProt P35439+Q62645)
# Construct: expressed in transfected cells; host or cells: Xenopus laevis oocytes (Ecocyte) injected with in vitro transcribed cRNA
# experimental-protocol: Two-electrode voltage-clamp (TEVC) recordings in Xenopus laevis oocytes, GluN1/GluN2D
# Format: cell-based
# condition-info: percentage of the initial glutamate (100 μM) and glycine (30 μM) current; read-out: EC50 (max.) (μM %) GluN2D: fitted maximum response
property-measured: Emax (%)
// return numeric value only (unit: %, not printed)

# count of solved cases: 4
# compound, Emax, %
data = [
    ("COc1ccc(OC[C@@H]2c3ccc(OC(C)C)cc3CCN2C(=S)c2cccc(Cl)c2)cc1 [(S)-(−)-1180-163]", 313),
    ("COc1ccc(OC[C@H]2c3ccc(OC(C)C)cc3CCN2C(=S)c2cccc(Cl)c2)cc1 [(R)-(+)-1180-163]", 255),
    ("COc1ccc(OC[C@@H]2c3ccc(OC(C)C)cc3CCN2C(=O)c2cccc(Cl)c2)cc1 [(S)-(−)-1180-55]", 350),
    ("CCOc1ccc(OC[C@@H]2c3ccc(OC(C)C)cc3CCN2C(=S)c2cccc(F)c2)cc1 [(S)-(−)-1180-154]", 190),
]

Form field: reported Emax of COc1ccc(OC[C@H]2c3ccc(OC(C)C)cc3CCN2C(=O)c2cccc(Cl)c2)cc1 [(R)-(+)-1180-55] 384

Form field: reported Emax of CCOc1ccc(OC[C@H]2c3ccc(OC(C)C)cc3CCN2C(=S)c2cccc(C(F)(F)F)c2)cc1 [(R)-(+)-1180-168] 160

Form field: reported Emax of CCOc1ccc(OCC2c3ccc(OC(C)C)cc3CCN2C(=S)c2cccc(C(F)(F)F)c2)cc1 (centres unmarked) 128

Form field: reported Emax of COc1ccc(OCC2c3ccc(OC(C)C)cc3CCN2C(=O)c2cccc(Cl)c2)cc1 (centres unmarked) 323

----------
# experimental-target: recombinant rat GluN1/GluN2C (Rattus norvegicus, UniProt P35439+Q00961)
# Construct: expressed in transfected cells; host or cells: Xenopus laevis oocytes (Ecocyte) injected with in vitro transcribed cRNA
# experimental-protocol: Two-electrode voltage-clamp (TEVC) recordings in Xenopus laevis oocytes, GluN1/GluN2C
# Type: cell-based
# condition-info: maximum potentiation, response without modulator = 100%; read-out: GluN2C EC50 (μM)/Max %: Max %
Please assign NO whenever Emax is at or above 200%, and YES whenever it is below.

Solved entries (count: 3):
# compound, cat
records = [
    ("COc1ccc(OCC2c3ccc(OC(C)C)cc3CCN2C(=S)c2cccc(F)c2)cc1 (stereo not drawn)", "NO"),
    ("CCOc1ccc(OCC2c3ccc(OC(C)C)cc3CCN2C(=O)c2ccc(F)c(Cl)c2)cc1 (stereo not drawn)", "YES"),
    ("CCOc1ccc(OCC2c3ccc(OC(C)C)cc3CCN2C(=S)Nc2cccc(Cl)c2)cc1 (stereo not drawn)", "YES"),
]

I'd appreciate it if you could check whether CCOc1ccc(OCC2c3ccc(OC(C)C)cc3CCN2C(=S)c2ccc(Cl)c(Cl)c2)cc1 (stereo not drawn) has Emax smaller than 200%. YES

I'd appreciate it if you could check whether CCOc1ccc(OCC2c3ccc(OC(C)C)cc3CCN2C(=S)c2cccc(Br)c2)cc1 (stereo not drawn) has Emax smaller than 200%. YES

I'd appreciate it if you could check whether COc1ccc(OCC2c3ccc(OC(C)C)cc3CCN2C(=O)c2cccc(Cl)c2)cc1 (stereo not drawn) has Emax smaller than 200%. NO
